biological target: rNaGLT1 (Rattus norvegicus, UniProt Q80T22, M166I/S3F); construct: expressed in transfected cells; host or cells: HEK293 cells, transient transfection, assayed 2 days later; test: Uptake of [14C] fructose by HEK293 cells transfected with rNaGLT1; format: cell-based; conditions: [14C] fructose 0.1 mM, 15 minutes at 37° C.; glucose analog 30 mM, phloridzin or phloretin 50 μM; vector uptake deducted
Sequence (Q80T22 whole entry, stated change not applied): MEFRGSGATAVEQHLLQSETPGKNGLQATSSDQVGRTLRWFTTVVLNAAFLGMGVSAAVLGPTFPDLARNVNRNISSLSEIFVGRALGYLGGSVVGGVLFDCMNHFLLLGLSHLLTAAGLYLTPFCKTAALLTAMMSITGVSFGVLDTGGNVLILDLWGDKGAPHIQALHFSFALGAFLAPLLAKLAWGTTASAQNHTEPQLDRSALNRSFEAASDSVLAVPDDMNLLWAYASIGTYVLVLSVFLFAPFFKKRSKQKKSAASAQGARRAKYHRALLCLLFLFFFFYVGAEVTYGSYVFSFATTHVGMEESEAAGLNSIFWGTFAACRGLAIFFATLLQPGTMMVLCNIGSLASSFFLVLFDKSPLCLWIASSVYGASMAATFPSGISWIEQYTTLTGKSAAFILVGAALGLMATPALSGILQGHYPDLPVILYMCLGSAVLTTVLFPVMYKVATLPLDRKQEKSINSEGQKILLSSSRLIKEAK
Field: label. Allowed values: TRUE (Uptake of [14C] fructose by HEK293 cells expressing rNaGLT1 < 1 Pmol/mg protein/min) or FALSE (Uptake of [14C] fructose by HEK293 cells expressing rNaGLT1 >= 1 Pmol/mg protein/min).

Ask | Problem: For the molecule "O=C[C@H](O)[C@@H](O)[C@@H](O)[C@H](O)CO" , is Uptake of [14C] fructose by HEK293 cells expressing rNaGLT1 under 1 Pmol/mg protein/min?
Reply | FALSE

Ask | Problem: For the molecule "O=C(CO)[C@@H](O)[C@H](O)[C@H](O)CO" , is Uptake of [14C] fructose by HEK293 cells expressing rNaGLT1 under 1 Pmol/mg protein/min?
Reply | TRUE

Ask | Problem: For the molecule "OC[C@H]1O[C@H](CO)[C@@H](O)[C@@H]1O" , is Uptake of [14C] fructose by HEK293 cells expressing rNaGLT1 under 1 Pmol/mg protein/min?
Reply | FALSE

Ask | Problem: For the molecule "OC[C@H]1O[C@@](CO)(O[C@H]2O[C@H](CO)[C@@H](O)[C@H](O)[C@H]2O)[C@@H](O)[C@@H]1O" , is Uptake of [14C] fructose by HEK293 cells expressing rNaGLT1 under 1 Pmol/mg protein/min?
Reply | FALSE

Ask | Problem: For the molecule CO[C@H]1O[C@H](CO)[C@@H](O)[C@H](O)[C@H]1O [αMeGlc, α-methyl-D-glucopyranoside] , is Uptake of [14C] fructose by HEK293 cells expressing rNaGLT1 under 1 Pmol/mg protein/min?
Reply | FALSE

Ask | Problem: For the molecule "O=C(CCc1ccc(O)cc1)c1c(O)cc(O)cc1O" , is Uptake of [14C] fructose by HEK293 cells expressing rNaGLT1 under 1 Pmol/mg protein/min?
Reply | TRUE

Ask | Problem: For the molecule "O=CC[C@@H](O)[C@H](O)[C@H](O)CO" , is Uptake of [14C] fructose by HEK293 cells expressing rNaGLT1 under 1 Pmol/mg protein/min?
Reply | FALSE

Ask | Problem: For the molecule "CO[C@@H]([C@H](O)[C@H](O)CO)[C@@H](O)C=O" , is Uptake of [14C] fructose by HEK293 cells expressing rNaGLT1 under 1 Pmol/mg protein/min?
Reply | FALSE
